- System: NCI/ADR-RES ovarian
- assay-name: NCI tumour cell line growth inhibition, 48 h
measure: TGI

The examples below pair each entry with its known result.
{"compound": "COc1ccc(N[C@H](CS(=O)c2ccc(C)cc2)c2ccc(F)cc2)cc1 (stereo partly drawn)", "assayed-target": "NCI/ADR-RES ovarian", "measure": "TGI", "experimental-result": "> 100 µM"}
{"compound": "CS(=O)(=O)CCNCc1nc(-c2ccc3ncnc(Nc4ccc(F)c(Cl)c4)c3c2)cs1", "assayed-target": "NCI/ADR-RES ovarian", "measure": "TGI", "experimental-result": "> 25 µM"}

Annotate the compound `CC(=O)c1ccc(N=Nc2ccc3nonc3c2N)cc1` with its measured TGI.
> 100 µM

Annotate the compound `O=P(O)(CCP(=O)(O)c1ccccc1)c1ccccc1` with its measured TGI.
> 100 µM

Annotate the compound `COc1cc2c(cc1C[N+](C)(C)CSc1ccccc1)-c1ccccc1CC2` with its measured TGI.
> 100 µM

----------
- Test system: HS 578T breast
- assay-name: NCI tumour cell line growth inhibition, 48 h; in the data active = GI50 below about 0.43 µM; inactive = the rest
// one of class 1 for active, class 0 for inactive, no free text

Some entries whose results are on file:
{"smiles-text": "COc1ccc(N=C2CSc3nnc(-c4cc(F)c(Cl)cc4Cl)n3N2)cc1", "assigned-label": "class 0"}
{"smiles-text": "COc1ccc2nc(N/N=C(\\C)c3ccccn3)cc(C)c2c1", "assigned-label": "class 0"}
{"smiles-text": "CC(=O)O[C@H]1CC[C@@]2(C)C(=CC[C@@H]3[C@@H]2CC[C@]2(C)C(c4cccnc4)=CC[C@@H]32)C1", "assigned-label": "class 0"}
{"smiles-text": "CCN(CC)CCOc1nc2ccc(OC)cc2c2c1-c1ccc(OC)cc1C2=O", "assigned-label": "class 0"}

Now look at this one.
Which result was noted for this compound in the test: `O=C1NCc2ccc3c(-c4cccc(Cl)c4)c[nH]c3c21`
class 1

----------
- Test system: UACC-62 melanoma
- assay-name: NCI tumour cell line growth inhibition, 48 h; in the data active means GI50 below about 0.43 µM; inactive means the rest
// one of active, inactive, no free text

Some entries whose results are on file:
{"compound": "CCOc1cc2ncc(C#N)c(Nc3ccc(OCc4cccc(F)c4)c(Cl)c3)c2cc1NC(=O)CC1CCSS1 (stereo not drawn)", "assigned-label": "inactive"}
{"compound": "COc1ccc(N=C2CSc3nnc(-c4cc(F)c(Cl)cc4Cl)n3N2)cc1", "assigned-label": "inactive"}
{"compound": "COc1cc(C2C=C(c3cccc(NC(C)=O)c3)Nc3ncnn32)cc(OC)c1OC (stereo not drawn)", "assigned-label": "active"}
{"compound": "CCN(CC)CCOc1nc2ccc(OC)cc2c2c1-c1ccc(OC)cc1C2=O", "assigned-label": "inactive"}
{"compound": "COc1ccc(Cl)cc1Nc1nc(C(F)(F)F)ccc1C(=O)N/N=C/c1c(Cl)cccc1Cl", "assigned-label": "inactive"}

Which result was noted for this compound in the test: `COc1nc(N(C)O)nc(N(C)O)n1`
inactive

Which result was noted for this compound in the test: `C=C1C(=O)O[C@H]2[C@H]1CC/C(Cn1cc(CNC(=O)Cc3cn(C(=O)c4ccc(Cl)cc4)c4ccc(OC)cc34)nn1)=C\CC[C@@]1(C)O[C@@H]21`
inactive

Which result was noted for this compound in the test: `COc1ccc2nc(N/N=C(\C)c3ccccn3)cc(C)c2c1`
active

----------
- Tested on: OVCAR-8 ovarian
- assay-name: NCI tumour cell line growth inhibition, 48 h
// reported TGI for each item listed

The examples below pair each entry with its known result.
{"compound": "O=C(CSc1nc2ccccc2[nH]1)Nc1ccc(-c2nc3ccccc3s2)c(Cl)c1", "experimental-result": "> 100 µM"}
{"compound": "COC(=O)N[C@H]1CCc2c(Br)c(OC)c(OC)c(OC)c2-c2ccc(SC)c(=O)cc21", "experimental-result": "> 77.2 µM"}
{"compound": "N#CCC(=O)Nc1cccc(C(F)(F)F)c1", "experimental-result": "> 100 µM"}
{"compound": "CC1=NOC2(C1)/C(=N/O)CCC/C2=N\\O (stereo unspecified)", "experimental-result": "> 100 µM"}
{"compound": "CCOC(=O)/C(O)=C1\\C(=O)N(C)C(=O)C1c1ccc(OC)c(OC)c1 (stereo unspecified)", "experimental-result": "> 100 µM"}

Turning now to a further record.
Annotate the compound COC(=O)C1CC2(CC3=C1CCCC3)OCCO2 (stereo unspecified) with its measured TGI.
> 100 µM

----------
- System: OVCAR-8 ovarian
- assay-name: NCI tumour cell line growth inhibition, 48 h
Where a SMILES comes first, the peptide text is derived from it. [ ]: non-standard residue; d: D form. The star is where a group is joined. Phe(4-NO2) = N[CH](Cc1ccc([N+](=O)[O-])cc1)C(=O)O; Boc = CC(C)(C)OC(=O)*; OBn = c1ccc(CO*)cc1
measure: TGI

The examples below pair each entry with its known result.
{"molecule": "Cc1ccc(N=Nc2c(C)nn(C(=O)CC(=O)Nc3ccccc3)c2C)cc1C", "assayed-target": "OVCAR-8 ovarian", "TGI": "> 100 µM"}
{"molecule": "COc1cc(C2C=C(c3cccc(NC(C)=O)c3)Nc3ncnn32)cc(OC)c1OC (centres undefined)", "assayed-target": "OVCAR-8 ovarian", "TGI": "> 100 µM"}
{"molecule": "COC(=O)CCC(NC(=O)OC(C)(C)C)C(=O)NC(Cc1ccc([N+](=O)[O-])cc1)C(=O)NCC(=O)OCc1ccccc1 (centres undefined) (Boc-Glu(OMe)-[Phe(4-NO2)]-Gly-OBn; configuration not given here)", "assayed-target": "OVCAR-8 ovarian", "TGI": "> 100 µM"}

Turning now to a further record.
Annotate the molecule `CC1=C(C(=O)Nc2c(C)cccc2C)C(c2ccc3c(c2)OCO3)C(C(=O)Nc2c(C)cccc2C)=C(C)N1` with its measured TGI.
44.2 µM

----------
- System: XF 498 CNS
- assay-name: NCI tumour cell line growth inhibition, 48 h
measure: TGI

The examples below pair each entry with its known result.
{"compound": "CCOC(=O)/C(O)=C1\\C(=O)N(C)C(=O)C1c1ccc(OC)c(OC)c1 (centres undefined)", "TGI": "> 100 µM"}
{"compound": "O=C(c1ccccc1)C(C(=O)c1ccccc1)C1(O)C(=O)c2ccccc2C1=O", "TGI": "> 100 µM"}
{"compound": "CC(=O)O/C=C(/C=C/OC(C)=O)C(C/C=C(\\C)C#CC=C(C)C)OC(C)=O (centres undefined)", "TGI": "> 100 µM"}
{"compound": "O=C(O)c1c(-c2cccc3ccccc23)sc(-c2cccc3ccccc23)c1C(=O)O", "TGI": "> 100 µM"}
{"compound": "Nn1c(-c2ccccc2)nc2ccc(Br)cc2c1=O", "TGI": "> 100 µM"}
{"compound": "COc1ccc2[nH]c3c(c2c1)CCN(C)CC3", "TGI": "> 100 µM"}
{"compound": "COc1ccc(C(=O)/C(Br)=C/C(=O)O)cc1", "TGI": "16 µM"}
{"compound": "O=c1c2ccccc2[nH]c(=S)n1-c1ccc(Br)cc1", "TGI": "> 100 µM"}
{"compound": "Cc1ccc(OCC(=O)N2N=C(c3ccccc3)CC2(O)c2ccccc2)cc1 (centres undefined)", "TGI": "> 100 µM"}
{"compound": "CCOC(=O)C(=O)Nc1nc2c(s1)C(=O)c1ccccc1C2=O", "TGI": "26.9 µM"}

Annotate the compound `Cc1cc2c(c(C#N)c1C)NC(=O)CCC2=O` with its measured TGI.
> 100 µM

Annotate the compound `CCCCOC(=O)CNC(=O)OCCCCC#CC#CCCCCOC(=O)NCC(=O)OCCCC` with its measured TGI.
> 100 µM

Annotate the compound CC1(C)OP23(NC(=O)OC2(C(F)(F)F)c2ccccc2O3)OC1(C)C (centres undefined) with its measured TGI.
> 100 µM

Annotate the compound O=C1C(Br)=CC2([N+](=O)[O-])CCNc3c(O)c4c5c(c3C2=C1Br)=NCCC=5C=N4 (centres undefined) with its measured TGI.
5.48 µM

----------
// reported TGI for each item listed
- Test system: UO-31 renal
- assay-name: NCI tumour cell line growth inhibition, 48 h

The examples below pair each entry with its known result.
{"compound": "Cc1cc2c(cc1Cl)Sc1nnc(Nc3ccccc3)n1S2(=O)=O", "assayed-target": "UO-31 renal", "TGI": "41.8 µM"}
{"compound": "CC1(C)OP23(NC(=O)OC2(C(F)(F)F)c2ccccc2O3)OC1(C)C (centres undefined)", "assayed-target": "UO-31 renal", "TGI": "> 100 µM"}
{"compound": "CC1(C)OC2OC(COC(=O)C=[N+]=[N-])C3OC(C)(C)OC3C2O1 (centres undefined)", "assayed-target": "UO-31 renal", "TGI": "> 100 µM"}

Turning now to a further record.
Annotate the compound `COc1cc(CCc2ccc(OCCN(C)C)cc2)cc(OC)c1OC` with its measured TGI.
> 100 µM

Every entry's value here was drawn from PubChem BioAssay (NCI).
